- Assayed System: NADPH oxidase 2 (Homo sapiens) (UniProt P04839)
- Sequence (P04839 whole entry, looked up): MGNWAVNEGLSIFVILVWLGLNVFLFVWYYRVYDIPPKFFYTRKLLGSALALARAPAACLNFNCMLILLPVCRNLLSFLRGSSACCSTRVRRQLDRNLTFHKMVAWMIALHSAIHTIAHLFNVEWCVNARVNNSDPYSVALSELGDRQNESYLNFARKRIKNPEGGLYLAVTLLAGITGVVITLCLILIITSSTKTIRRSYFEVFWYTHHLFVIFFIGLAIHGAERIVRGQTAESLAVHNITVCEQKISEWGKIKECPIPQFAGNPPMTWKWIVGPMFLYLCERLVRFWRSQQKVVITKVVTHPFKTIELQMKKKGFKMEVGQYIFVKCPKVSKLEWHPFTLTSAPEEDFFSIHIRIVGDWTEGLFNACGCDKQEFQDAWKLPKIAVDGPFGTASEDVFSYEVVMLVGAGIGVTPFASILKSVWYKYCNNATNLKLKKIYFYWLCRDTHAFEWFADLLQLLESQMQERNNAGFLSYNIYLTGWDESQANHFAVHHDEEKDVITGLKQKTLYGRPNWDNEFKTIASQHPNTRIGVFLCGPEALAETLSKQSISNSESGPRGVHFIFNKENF
- Protocol: NOX2-dependent H2O2 signal modulators, primary screen, NOX inhibitor project, cell-based, HEK293-NOX2, PMA-stimulated, Amplex Red fluorescence (AID 1159); further: test concentration not given here
- Condition Label: 45 min, higher = more signal, called active from +8 up or from −8 down
Below, each entry is listed alongside its reported z-score.
// return just the number, without any unit appended

Check out these entries, answers already filled in.
INSERT INTO assay_data (compound, reading) VALUES
  ('CC(C)CNC(=O)[C@@H]1c2ccccc2C(=O)N(Cc2ccccc2Cl)[C@H]1c1ccc(CO)cc1', -0.451),
  ('CCCCC=C[C@@H](NC(=O)c1ccc(C(F)(F)F)cc1)c1ccccc1', -1.51),
  ('NC(=O)[C@@]1(CCS(=O)(=O)c2ccccc2)COC(c2ccc(OCCCO)cc2)=N1', -2.33),
  ('COc1ccc(C#Cc2ccc3c(c2)[C@]2(C(=O)N3)[C@H](C(=O)Nc3nc4ccccc4s3)[C@H]3C(=O)O[C@H](c4ccccc4)[C@H](c4ccccc4)N3[C@@H]2c2ccc(OCCO)cc2)cc1', 0.578),
  ('COCC(=C=CC[C@@H](O)c1cccc(OCCO)c1)C[C@@H](O)COCc1ccccc1', -0.0404);

IN: Name the recorded z-score for "CC#CCO[Si](C#CCCCCCC)(C(C)C)C(C)C" .
OUT: -1.27

IN: Name the recorded z-score for "COC(=O)[C@@]1(Cc2ccc(F)cc2)[C@H]2c3cc(C(=O)N4CCCC4)n(CCO)c3C[C@H]2CN1C(=O)c1ccccc1" .
OUT: 0.54

IN: Name the recorded z-score for C[C@H]1C2[C@H](Cc3ccccc3)NC(=O)[C@]23C(=O)NCC(=O)N2CCC[C@H]2C(=O)NC/C=C\C/C=C/C3[C@@H]2O[C@]12C (stereo partly drawn) .
OUT: 0.212
